Sourced from patent US11478451B1

Tested on: SUDHL5 cells
Assay: Induction of cytotoxicity (CellTiter-Glo, 5 h), SUDHL5
Settings: read-out: Cytotox SUDHL5 [M] (median); IC50, median; SUDHL5, 5 h; listed as 098
EXPERIMENTAL_ENDPOINT: IC50 (M)
Give bare numbers, in M.

Summary for this compound, CCc1c2c(nn1C)COCCC(F)(F)Cn1c(C(=O)O)c(CCCOc3cccc4cc(F)ccc34)c3ccc(Cl)c-2c31 (single isomer, unassigned) [Example 98] : IC50 is 7.3e-06

* * *

System: SUDHL5 cells
Assay: Induction of caspase-3/7 activity (Caspase-Glo 3/7), SUDHL5
Format: cell-based
Conditions: EC50, median; SUDHL5, 3 h treatment; listed as 076
EXPERIMENTAL_ENDPOINT: EC50 (nM)
Answers are plain numbers, in nM.

Summary for this compound, CCc1c2c(nn1C)CN(CC(F)F)CCCCn1c(C(=O)O)c(CCCOc3cccc4cc(F)ccc34)c3ccc(Cl)c-2c31 (single isomer, unassigned; enantiomer 2) [Example 76] : EC50 is 240

* * *

Tested on: SUDHL5 cells
Experiment: Induction of cytotoxicity (CellTiter-Glo, 5 h), SUDHL5
Details: Homo sapiens, SU-DHL-5, 5 h, read-out: Cytotox SUDHL5 [M] (median), IC50, median; SUDHL5, 5 h
EXPERIMENTAL_ENDPOINT: IC50 (M)
Give bare numbers, in M.

A selection of reference data follows.
{"columns": ["COMPOUND", "IC50 (M)"],
 "data": [
  ["CCc1c2c(nn1C)COCCC(F)(F)Cn1c(C(=O)O)c(CCCOc3cccc4cc(F)ccc34)c3ccc(Cl)c-2c31 (racemic)", "4.7e-07"],
  ["Cc1c2c(nn1C)COCCC(F)(F)Cn1c(C(=O)O)c(CCCOc3cccc4cc(F)ccc34)c3ccc(Cl)c-2c31 (racemic)", "3.5e-07"]
]}

// next item, IC50 requested
Summary for this compound, CCc1nn(CCN2CCOCC2)c2c1-c1c(Cl)ccc3c(CCCOc4cccc5ccccc45)c(C(=O)O)n(c13)C/C=C\CN(C)C2 (racemic) [Example 42] : IC50 is 4e-06

* * *

Tested on: SUDHL5 cells
Assay: Antiproliferation assay (CellTiter-Glo, 72 h), SUDHL5
Format: cell-based
Settings: Homo sapiens, SU-DHL-5, 72 h, IC50, median; SUDHL5, 72 h; read-out: Antiproli SUDHL5 [M] (median)
Assignment: determine reported IC50 for the given molecules.
Numbers only, in M.

Fill in IC50 for each of the 8 molecules listed.
1. Cc1c2c(nn1C)COCC(F)(F)CCn1c(C(=O)O)c(CCCOc3cccc4cc(F)ccc34)c3ccc(Cl)c-2c31 (single isomer, unassigned)
2. Cc1c2c(nn1CCCN1CCN(C)CC1)COCCCCn1c(C(=O)O)c(CCCOc3cccc4ccccc34)c3ccc(Cl)c-2c31 (racemic)
3. CCc1c2c(nn1C)CN(C(=O)OCCC1CCOCC1)CCCCn1c(C(=O)O)c(CCCOc3cccc4cc(F)ccc34)c3ccc(Cl)c-2c31
4. CCc1c2c(nn1C)COCCC(F)(F)Cn1c(C(=O)O)c(CCCOc3cccc4cc(F)ccc34)c3ccc(Cl)c-2c31 (racemic)
5. CCc1c2c(nn1C)CN(CCC1CCOCC1)CCCCn1c(C(=O)O)c(CCCOc3cccc4cc(F)ccc34)c3ccc(Cl)c-2c31 (racemic) [Example 135]
6. Cc1c2c(nn1C)COCCC(F)(F)Cn1c(C(=O)O)c(CCCOc3cccc4ccccc34)c3ccc(Cl)c-2c31 [Example 95]
7. CCc1c2c(nn1C)COCC1(CCn3c(C(=O)O)c(CCCOc4cccc5cc(F)ccc45)c4ccc(Cl)c-2c43)CC1 (racemic) [Example 109]
8. Cc1c2c(nn1C)CN(CC(F)(F)F)CCCCn1c(C(=O)O)c(CCCOc3cccc4cc(F)ccc34)c3ccc(Cl)c-2c31 (racemic)

1. 8.2e-07
2. 2e-07
3. 3.5e-07
4. 3.1e-07
5. 1.2e-07
6. 1e-06
7. 5.5e-07
8. 6.2e-07

Fill in IC50 for each of the 3 molecules listed.
1. CCc1c2c(nn1C)CCCCCCn1c(C(=O)O)c(CCCOc3cccc4cc(F)ccc34)c3ccc(Cl)c-2c31 (single isomer, unassigned; enantiomer 1)
2. CCc1c2c(nn1C)CNCCCCn1c(C(=O)O)c(CCCOc3cccc4cc(F)ccc34)c3ccc(Cl)c-2c31 (racemic)
3. CCc1c2c(nn1C)COCCCCn1c(C(=O)O)c(CCCOc3cccc4cc(F)ccc34)c3ccc(Cl)c-2c31 (single isomer, unassigned; enantiomer 1)

1. 1.5e-06
2. 7.5e-06
3. 4.2e-06

Param item: CCc1c2c(nn1C)CCCCCCn1c(C(=O)O)c(CCCOc3cccc4ccccc34)c3ccc(Cl)c-2c31 (racemic) ; param system: SUDHL5 cells; output IC50: 6.7e-06
